- Test system: HEK293
- protocolText: Cytotoxicity against human HEK293 cells assessed as cell viability after 24 hrs by cell titer-blue assay
- Assay type: cell-based
- conditionContext: HEK293, 24 h
Task for the reader: assign each of the following molecules its reported IC50.
The response must be a number in µM with no trailing unit.

Need IC50 of O=C(/C=C/c1ccccc1)c1ccc(O)cc1O [2',4'-DIHYDROXYCHALCONE] , thanks.
109

Bench note: what IC50 did `CC1(C)CC[C@]2(CO)CC[C@]3(C)C(=CC[C@@H]4[C@@]5(C)CC[C@H](O)C(C)(C)[C@@H]5CC[C@]43C)[C@@H]2C1` show?
613

Look up IC50: `CC1(C)CC[C@]2(C(=O)O)CC[C@]3(C)C(=CC[C@@H]4[C@@]5(C)CC[C@H](O)C(C)(C)[C@@H]5CC[C@]43C)[C@@H]2C1`
329

Using the record for `COc1cc(CCc2ccccc2O)cc(O)c1OC` , report its IC50.
298

What measured IC50 goes with `O=C(CCc1ccccc1)c1ccc(O)cc1O` ?
249
